Test: In vitro intrinsic clearance in murine microsomes
Format: in vitro ADME
Conditions: mouse, pH 7.4; murine microsomes 0.5 mg/ml, 1 μM compound, 37° C., up to 1 hour; read-out: murine MS Clint
valueType: microsomal CLint at 1 μM (µL/min/mg)

> print(dat)
                          structurenotation                 valuetype  unitdescriptor  numericreadout
1  COc1cc(N(C)C)ncc1-n1cc2c(c1C(C)C)[C@@]1(C(=O)Nc3cc(Cl)ccc31)N(c1cc(Cl)ccc1F)C2=O  microsomal CLint at 1 μM       µL/min/mg            33.6
2  COc1ncc(-n2cc3c(c2C(C)C)[C@@]2(C(=O)Nc4cc(Cl)ccc42)N(c2ccc(F)c(F)c2)C3=O)c(OC)n1  microsomal CLint at 1 μM       µL/min/mg             6.6

[1] COc1ncc(-n2cc3c(c2C(C)C)[C@@]2(C(=O)Nc4cc(Cl)ccc42)N(c2cccc(Cl)c2)C3=O)c(OC)n1
[2] COc1cc(OC)c(-n2cc3c(c2C(C)C)[C@@]2(C(=O)Nc4cc(Cl)ccc42)N(c2ccc(F)c(F)c2)C3=O)cn1
IN: # return whichever of 1 and 2 has the smaller microsomal CLint at 1 μM Return value: the label identifying the chosen record.
OUT: 1
(1: 8.8 µL/min/mg, 2: 12.8 µL/min/mg)

----------
Each entry below lists one item and its recorded microsomal CLint at 1 μM value.
Test: In vitro intrinsic clearance in murine microsomes
Assay type: in vitro ADME
Conditions: mouse, pH 7.4; murine microsomes 0.5 mg/ml, 1 μM compound, 37° C., up to 1 hour; read-out: murine MS Clint

> print(dat)
                                   compound         result
1  COc1nc(OC)c(-n2cc3c(c2C(C)C)[C@@]2(C(=O)Nc4cc(Cl)ccc42)N(c2cc(Cl)ccc2C)C3=O)c(OC)n1 [Compound 3]  < 3 µL/min/mg
2  COc1ncc(-n2cc3c(c2C(C)C)[C@@]2(C(=O)Nc4cc(Cl)ccc42)N(c2cc(Cl)ccc2F)C3=O)c(OC)n1 [Compound 2]  < 4 µL/min/mg
3  COc1ncc(-n2cc3c(c2C(C)C)[C@@]2(C(=O)Nc4cc(Cl)ccc42)N(c2cc(Cl)c(F)cc2F)C3=O)c(OC)n1 [Compound 10]  < 3 µL/min/mg
4  COc1ncc(-n2cc3c(c2C(C)C)[C@@]2(C(=O)Nc4cc(Cl)ccc42)N(c2ccc(F)c(Cl)c2)C3=O)c(OC)n1 [Compound 4]  < 3 µL/min/mg

IN: Given COc1nc(OC)c(-n2cc3c(c2C(C)C)[C@@]2(C(=O)Nc4cc(Cl)ccc42)N(c2cc(Cl)ccc2F)C3=O)c(OC)n1 [Compound 5] , state its recorded microsomal CLint at 1 μM.
OUT: < 3 µL/min/mg
